- experimentDescription: Comment Code material properties: vapor pressure, ClogP, probability of ingredient color instability, odor detection threshold, melamine formaldehyde PMC headspace response ratio and leakage, liquid dish neat product liquid-air partition coefficient
- Type: physicochemical
- setupConditions: cell strings several class symbols together; each letter is one property class of L1
measurementKind: Comment Code

Example entries and their recorded answers appear below.
Request: Which Comment Code reading was recorded for the compound CC(=O)O[C@]1(C)CC[C@@]23C[C@@H]1C(C)(C)[C@@H]2CC[C@H]3C [Material 567] ?
Result: DEFHJK

Request: Which Comment Code reading was recorded for the compound CCOc1cc(COC)ccc1O [Material 115] ?
Result: CFGK

Request: Which Comment Code reading was recorded for the compound CC(C)=CCCC(C)CCOC(=O)Cc1ccccc1 (stereo not drawn) [Material 510] ?
Result: DFHJ

Request: Which Comment Code reading was recorded for the compound C=CC(C)(O)CCC=C(C)C (stereo not drawn) [Material 157] ?
Result: BCEFGIJK

Request: Which Comment Code reading was recorded for the compound Cc1n[nH]cc1-c1ccccc1 [Material 808] ?
Result: CEFHK

# evaluate next
Request: Which Comment Code reading was recorded for the compound CC1CC2CCC3C(C2O1)C(C)(C)C(C)C3(C)C (stereo not drawn) [Material 1097] ?
Result: DEFHJK

----------
- experimentDescription: Comment Code material properties: vapor pressure, ClogP, probability of ingredient color instability, odor detection threshold, melamine formaldehyde PMC headspace response ratio and leakage, liquid dish neat product liquid-air partition coefficient
- Format: physicochemical
- setupConditions: Table 1 materials; each letter of the code is one property class (vapor pressure, ClogP, color instability, odor detection threshold, PMC headspace ratio, PMC leakage, liquid dish liquid-air partition coefficient)
measurementKind: Comment Code

Example entries and their recorded answers appear below.
Request: Which Comment Code reading was recorded for the molecule C=CC(C)(CCC=C(C)C)OC(C)OCC (stereo not drawn) ?
Result: BDEFHJK

Request: Which Comment Code reading was recorded for the molecule CC/C=C\CC/C=C/C=O ?
Result: ACHKL

Request: Which Comment Code reading was recorded for the molecule CCC(=O)OC(C)(C)C1CC=C(C)CC1 (stereo not drawn) ?
Result: BDEFHJK

Request: Which Comment Code reading was recorded for the molecule CCCCCC1CC(=O)C=C(C)C1C(=O)OCC (stereo not drawn) ?
Result: DHJ

Others:
Request: Which Comment Code reading was recorded for the molecule Cc1ccc(OC(=O)Cc2ccccc2)cc1 ?
Result: DFHJ

----------
- experimentDescription: Comment Code material properties: vapor pressure, ClogP, probability of ingredient color instability, odor detection threshold, melamine formaldehyde PMC headspace response ratio and leakage, liquid dish neat product liquid-air partition coefficient
- Assay type: physicochemical
- setupConditions: cell strings several class symbols together; each letter is one property class of L1
measurementKind: Comment Code

Request: Which Comment Code reading was recorded for the compound C[C@@H]1CC[C@H]2C(C)(C)[C@H]3C[C@@]12CC1OC(C)(C)OC13C (stereo partly drawn) ?
Result: DEFHJK

Request: Which Comment Code reading was recorded for the compound O=C(OCc1ccccc1)c1ccccc1O ?
Result: DFGJ

Request: Which Comment Code reading was recorded for the compound CCCCCC(=O)O ?
Result: ACEFGIKL

Request: Which Comment Code reading was recorded for the compound C[C@@H]1CCC=C2CC[C@@H](C(C)(C)O)C[C@]21C ?
Result: DEFHJK

Others:
Request: Which Comment Code reading was recorded for the compound C=C1C=CC(C(C)C)CC1 (stereo not drawn) ?
Result: ADEFGIJKL

Request: Which Comment Code reading was recorded for the compound CC(=O)C(C)=CC1C(C)=CCCC1(C)C (stereo not drawn) ?
Result: BDHIJK

Request: Which Comment Code reading was recorded for the compound CC1(C)CCC[C@@]2(C)[C@H]1CC[C@]13CO[C@](C)(CC[C@@H]12)O3 ?
Result: DEFHJ

Request: Which Comment Code reading was recorded for the compound CCCCCCOC(=O)C(C)CC (stereo not drawn) ?
Result: BDEFHJKL

Request: Which Comment Code reading was recorded for the compound CC12CCCC(O)(C1)C1CC(C)(C)C1CC2 (stereo not drawn) ?
Result: DEFHJK

Request: Which Comment Code reading was recorded for the compound CC1=C2C(CC1)C(C)CCC1C2C1(C)C (stereo not drawn) ?
Result: BDEFHJKL

Request: Which Comment Code reading was recorded for the compound CC1=CCC(C(C)C)=CC1 ?
Result: ADEFGIJKL

Request: Which Comment Code reading was recorded for the compound C/C=C\c1ccc(O)c(OC)c1 ?
Result: CEFHIK

Request: Which Comment Code reading was recorded for the compound C/C=C(\C)C(=O)OCCCCCC ?
Result: BDEFHJKL

Request: Which Comment Code reading was recorded for the compound COc1ccccc1C=CC=O ?
Result: ACHK

Request: Which Comment Code reading was recorded for the compound CC1(C)CCc2ccc(CCC=O)cc21 ?
Result: DHJK

Request: Which Comment Code reading was recorded for the compound C/C=C(\C)C(=O)OCC/C=C\CC ?
Result: BDEFHJK

----------
- experimentDescription: Comment Code material properties: vapor pressure, ClogP, probability of ingredient color instability, odor detection threshold, melamine formaldehyde PMC headspace response ratio and leakage, liquid dish neat product liquid-air partition coefficient
- Format: physicochemical
- setupConditions: Table 1 materials; each letter of the code is one property class (vapor pressure, ClogP, color instability, odor detection threshold, PMC headspace ratio, PMC leakage, liquid dish liquid-air partition coefficient)
measurementKind: Comment Code

Request: Which Comment Code reading was recorded for the compound C[C@@H]1CC[C@H]2C(C)(C)[C@H]3C[C@@]12CC[C@@]3(C)O [Material 569] ?
Result: DEFHJK

Request: Which Comment Code reading was recorded for the compound CC(=O)C=CC1C(C)=CCC(C)C1(C)C (stereo not drawn) [Material 704] ?
Result: BDHJK

Request: Which Comment Code reading was recorded for the compound CC/C=C/CC/C=C/C=O [Material 829] ?
Result: ACHKL

Request: Which Comment Code reading was recorded for the compound CC(C)=CCCC1=CCC(C#N)CC1 (stereo not drawn) [Material 660] ?
Result: DEFHJK

----------
- experimentDescription: Comment Code material properties: vapor pressure, ClogP, probability of ingredient color instability, odor detection threshold, melamine formaldehyde PMC headspace response ratio and leakage, liquid dish neat product liquid-air partition coefficient
- Type: physicochemical
- setupConditions: cell strings several class symbols together; each letter is one property class of L1
measurementKind: Comment Code

Example entries and their recorded answers appear below.
Request: Which Comment Code reading was recorded for the compound CC(=O)C1=C(C)[C@@H]2C[C@@]3(C1)[C@H](C)CC[C@H]3C2(C)C [Material 1129] ?
Result: DHJK

Request: Which Comment Code reading was recorded for the compound CC(C)=CCC/C(C)=C/COC(=O)c1ccccc1 [Material 310] ?
Result: DFHJ

Request: Which Comment Code reading was recorded for the compound CC1(CO)CC1CC1CC2CC2(C)C1(C)C (centres unmarked) [Material 185] ?
Result: DEFHJK

Request: Which Comment Code reading was recorded for the compound CC(C)CCOC(=O)C(C)C [Material 239] ?
Result: ACEFGIJKL

Request: Which Comment Code reading was recorded for the compound CC1C(C)(C)C2CCC3CC(C)(C)OC3C2C1(C)C (centres unmarked) [Material 679] ?
Result: DEFHJK

Request: Which Comment Code reading was recorded for the compound CC(C)=CCCC(C)CCOC(=O)c1ccccc1 (centres unmarked) [Material 515] ?
Result: DFHJ

Others:
Request: Which Comment Code reading was recorded for the compound C=C(C)CCC[C@H](C)CCO [Material 1004] ?
Result: BCHIJKL

Request: Which Comment Code reading was recorded for the compound O=C/C=C/c1ccccc1 [Material 554] ?
Result: ACHIK

----------
- experimentDescription: Comment Code material properties: vapor pressure, ClogP, probability of ingredient color instability, odor detection threshold, melamine formaldehyde PMC headspace response ratio and leakage, liquid dish neat product liquid-air partition coefficient
- Assay type: physicochemical
- setupConditions: Table 1 materials; each letter of the code is one property class (vapor pressure, ClogP, color instability, odor detection threshold, PMC headspace ratio, PMC leakage, liquid dish liquid-air partition coefficient)
measurementKind: Comment Code

Example entries and their recorded answers appear below.
Request: Which Comment Code reading was recorded for the compound CC1=CC2C(CC1)C(C)=CCC2C(C)C (stereo not shown) [Material 725] ?
Result: DEFHJKL

Request: Which Comment Code reading was recorded for the compound COc1cc(C=O)ccc1OC(=O)C(C)C [Material 1111] ?
Result: CHJ

Request: Which Comment Code reading was recorded for the compound CCC(=O)C=CC1C(C)=CCCC1(C)C (stereo not shown) [Material 700] ?
Result: BDHJK

Request: Which Comment Code reading was recorded for the compound CCC(=O)OC1CC2CC1C1CC=CC21 (stereo not shown) [Material 919] ?
Result: CEFHJK

Others:
Request: Which Comment Code reading was recorded for the compound CCCC(O)Cc1ccccc1 (stereo not shown) [Material 730] ?
Result: CEFHK

Request: Which Comment Code reading was recorded for the compound C=C1C2CCC(C)(OCC)C1CCC2(C)C (stereo not shown) [Material 606] ?
Result: BDEFHJK

Request: Which Comment Code reading was recorded for the compound C[C@@H]1CC[C@H]2C(C)(C)[C@H]3C[C@@]12CC1OC(C)(C)OC13C (stereo partly shown) [Material 674] ?
Result: DEFHJK

Request: Which Comment Code reading was recorded for the compound CC(C)=CCCC(C)c1ccc(C)cc1 (stereo not shown) [Material 713] ?
Result: DEFHJK

Request: Which Comment Code reading was recorded for the compound O=C1CCCCCC=CCCCCCCCCO1 [Material 771] ?
Result: DGJ

Request: Which Comment Code reading was recorded for the compound CC12CCCC(O)(C1)C1CC(C)(C)C1CC2 (stereo not shown) [Material 574] ?
Result: DEFHJK

Request: Which Comment Code reading was recorded for the compound C=CC(C)=CCC=C(C)CCC=C(C)C=O [Material 691] ?
Result: DHJK

Request: Which Comment Code reading was recorded for the compound CC(=O)C1CC/C(C)=C\CC/C(C)=C\C/C=C/1C (stereo not shown) [Material 1095] ?
Result: DHJK

Request: Which Comment Code reading was recorded for the compound CCC=C(C)C(O)CCCCC (stereo not shown) [Material 1104] ?
Result: BDEFHIJK

Request: Which Comment Code reading was recorded for the compound C=C1CCCC(C)(C)C1C=C(C)C(C)=O (stereo not shown) [Material 913] ?
Result: BDHIJK

Request: Which Comment Code reading was recorded for the compound C=C(C)C1CC=C(C)C(OC(C)=O)C1 (stereo not shown) [Material 577] ?
Result: BDHIJK

Request: Which Comment Code reading was recorded for the compound C=CCCCCCCCCC(=O)OCCCC [Material 599] ?
Result: DEFHJK
